Documented pIC50 across a set of binders
# assayed-system: T1, GABARAP(ΔG116)–NHNH methyl-fumarate 2 (UniProt O95166 1-115, C-terminal acyl hydrazide: -NHNH methyl fumarate (mimics the native glycine G116))
# T1 construct: GABARAP; GABARAP(ΔG116): the C-terminal glycine G116 is deleted, so the chain ends at residue 115; it may fit a chain without the first methionine (surmised); also called probe 2; GABARAP methyl fumarate; not shown: Mxe GyrA intein, C-terminal, cleaved
# T1 sequence (O95166 1-115, stated change not applied): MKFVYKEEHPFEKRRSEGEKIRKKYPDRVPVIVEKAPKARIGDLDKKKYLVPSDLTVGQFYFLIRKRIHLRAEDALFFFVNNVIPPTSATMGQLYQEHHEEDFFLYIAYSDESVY
# method-summary: cross-linking; competition: probe 2 (15 μM) incubated with ATG3 C1 in the presence of increasing amounts of LIR^ATG3 peptide; GABARAP–ATG3 C1 complex quantified by gel densitometry, normalized to the reaction without peptide; IC50 by nonlinear regression
# experimental-context: both partners purified
pIC50: −log10 of the molar value. Where no end group is shown, it is not given here.
measured-quantity: pIC50

binder | reported-value
LEAIIEEDDGDGGWVDTYHC (thioether (positions not given here); not fully specified (bridges); also: cyclized by selective cysteine alkylation, partner of Cys not given here) [Cyclic peptide 6] | 4.62
LEAIIEEDDGDGGWVDTYH (peptide, UniProt Q9NT62 94-112, looked up, ATG3, human, LIR motif stretch L94-H112; also called linear LIR^ATG3 peptide 5; source: synthetic peptide (chemically prepared)) [LIR (L94-H112) peptide 5] | 3.98
